target: Kappa-type opioid receptor (Cavia porcellus); test: Inhibition of [3H]U-69593 binding to Opioid receptor kappa 1 in guinea pig brain homogenates; format: tissue-based
Sequence (P41144 whole entry): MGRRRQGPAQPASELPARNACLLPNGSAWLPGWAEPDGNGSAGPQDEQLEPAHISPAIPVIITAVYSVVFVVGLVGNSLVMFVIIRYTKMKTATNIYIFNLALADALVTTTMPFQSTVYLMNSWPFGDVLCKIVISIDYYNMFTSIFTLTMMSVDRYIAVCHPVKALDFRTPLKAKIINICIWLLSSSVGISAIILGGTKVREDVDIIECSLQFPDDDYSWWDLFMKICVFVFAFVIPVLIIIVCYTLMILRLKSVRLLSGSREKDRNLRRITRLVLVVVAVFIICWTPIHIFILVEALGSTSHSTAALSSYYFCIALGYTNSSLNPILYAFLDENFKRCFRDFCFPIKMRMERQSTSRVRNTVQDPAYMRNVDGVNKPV
pKi: −log10 of the molar value.

>  <Compound>
CN1CCCC1[C@@H]1CCCCN1C(=O)Cc1ccc(Cl)c(Cl)c1 (stereo partly drawn)

>  <pKi>
9.48

$$$$
>  <Compound>
O=C([C@@H]1CCc2cc(Cl)c(Cl)cc21)N1CCSC[C@H]1CN1CCCC1

>  <pKi>
9.36

$$$$
>  <Compound>
O=C1N(c2ccc(Cl)c(Cl)c2)CCCN1[C@H](CN1CCCC1)c1ccccc1

>  <pKi>
9.38

$$$$
